- Target Of Assay: human CTPS1 (Homo sapiens, UniProt P17812)
- Sequence (P17812 1-591): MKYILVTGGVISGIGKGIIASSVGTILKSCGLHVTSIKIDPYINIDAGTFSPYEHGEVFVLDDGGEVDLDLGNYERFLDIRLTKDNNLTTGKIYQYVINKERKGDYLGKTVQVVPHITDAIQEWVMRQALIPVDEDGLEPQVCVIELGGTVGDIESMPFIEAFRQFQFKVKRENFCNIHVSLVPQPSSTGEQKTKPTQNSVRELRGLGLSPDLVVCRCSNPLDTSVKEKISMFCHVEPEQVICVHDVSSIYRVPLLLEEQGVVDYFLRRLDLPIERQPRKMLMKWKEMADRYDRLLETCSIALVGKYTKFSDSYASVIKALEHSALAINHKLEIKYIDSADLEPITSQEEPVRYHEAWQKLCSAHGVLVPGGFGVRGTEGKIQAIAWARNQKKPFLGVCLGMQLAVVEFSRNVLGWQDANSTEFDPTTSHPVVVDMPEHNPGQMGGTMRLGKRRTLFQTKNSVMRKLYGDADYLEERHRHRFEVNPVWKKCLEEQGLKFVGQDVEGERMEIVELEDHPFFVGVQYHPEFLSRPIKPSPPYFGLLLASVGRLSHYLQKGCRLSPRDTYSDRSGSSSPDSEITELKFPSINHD
- Assay: ADP-Glo assay, human CTPS1 enzyme inhibition
- Format: biochemical
- Applied Conditions: wild-type human CTPS1, 25 nM enzyme; ADP-Glo; read-out: ADP-Glo_WT_hCTPS1—25 nM_IC50 (IC50)
pIC50: −log10 of the molar value. Where a name gives a salt, the structure may show the parent alone.
Measure: pIC50

Which pIC50 reading was recorded for the compound CCOc1cncc(-c2cnc(C(=O)N[C@@H](C[C@H]3CCCCN3C(C)C)c3cc(NS(=O)(=O)C4CC4)ccn3)s2)n1 (single isomer, unassigned) ? ≥ 8.30

Another compound to check: CCOc1cncc(-c2cnc(C(=O)N[C@@H](c3cc(NS(=O)(=O)C4CC4)ccn3)[C@@H]3CN(C)CCO3)s2)n1 7.60 to 8.30

Another compound to check: COC[C@H](NC(=O)c1ccc(-c2cnn3ccc(Cl)cc23)cc1F)c1cc(NS(=O)(=O)C2CC2)ccn1 < 7.00

Another compound to check: CCOc1cncc(-c2cnc(C(=O)N[C@@H](c3cc(NS(=O)(=O)C4CC4)ccn3)[C@H]3COCCO3)s2)n1 7.60 to 8.30

Another compound to check: C[C@H](O)[C@@H](NC(=O)c1ncc(-c2cnn3ccc(Cl)cc23)s1)c1cc(NS(=O)(=O)C2CC2)ccn1 7.60 to 8.30

Another compound to check: CCOc1cncc(-c2cnc(C(=O)N[C@@H](COC)c3ccnc(NS(=O)(=O)C4CC4)n3)s2)n1 7.60 to 8.30

Another compound to check: CCOc1cncc(-c2cnc(C(=O)N[C@H](CN3C[C@H]4C[C@@H]3CO4)c3cccc(NS(=O)(=O)C(F)F)c3)s2)n1 [I-205, formic acid salt] 7.30 to 7.60

###

- Target Of Assay: UniProt:P17812
- Assay: ADP-Glo assay, human CTPS1 enzyme inhibition
- Assay type: biochemical
- Applied Conditions: wild-type human CTPS1, 25 nM enzyme; ADP-Glo; read-out: ADP-Glo_WT_hCTPS1—25 nM_IC50 (IC50)
pIC50: −log10 of the molar value.
Kindly supply the reported pIC50 values for the records listed here.

Which pIC50 reading was recorded for the molecule CCOc1cncc(-c2cnc(C(=O)N[C@@H](CN3CCN(C)C(=O)C3)c3cc(NS(=O)(=O)C4CC4)ccn3)s2)n1 ? 7.60 to 8.30

Another molecule to check: C[C@@H](O)[C@@H](NC(=O)c1ncc(-c2cnn3ccc(Cl)cc23)s1)c1cc(NS(=O)(=O)C2CC2)ccn1 7.60 to 8.30

Another molecule to check: CCOc1cncc(-c2cnc(C(=O)N[C@H](CN3CCN(C4CC4)CC3)c3cc(NS(=O)(=O)C4CC4)ncn3)s2)n1 7.30 to 7.60

Another molecule to check: CCOc1cncc(-c2cnc(C(=O)N[C@H](COC)c3nccc(NS(=O)(=O)C4CC4)n3)s2)n1 7.60 to 8.30

Another molecule to check: CCOc1cncc(-c2cnc(C(=O)N[C@@H](CN3C[C@H]4C[C@@H]3CO4)c3cccc(NS(=O)(=O)C(F)F)c3)s2)n1 7.60 to 8.30

Another molecule to check: CCOc1cncc(-c2cnc(C(=O)N(C)[C@H](c3cc(NS(=O)(=O)C4CC4)ccn3)[C@@H]3CCOC3)s2)n1 7.00 to 7.30

Another molecule to check: O=C(N[C@H](CN1CCOCC1)c1cc(NS(=O)(=O)C2CC2)ccn1)c1ncc(-c2cnn3ccc(Cl)cc23)s1 7.60 to 8.30

Another molecule to check: CCOc1cncc(-c2cnc(C(=O)N[C@H](CN3CCN(C4CC4)CC3)c3cccc(NS(=O)(=O)C(F)F)c3)s2)n1 (single isomer, unassigned) 7.30 to 7.60

Another molecule to check: CCOc1cncc(-c2cnc(C(=O)N[C@H](c3cc(NS(=O)(=O)C4CC4)ccn3)[C@H]3CCN(CCF)C3)s2)n1 7.00 to 7.30

Another molecule to check: CCOc1cncc(-c2cnc(C(=O)N[C@@H](CN3CC[C@@]4(CCOC4)C3)c3cc(NS(=O)(=O)C4CC4)ccn3)s2)n1 7.30 to 7.60

Another molecule to check: COCC[C@H](NC(=O)c1ncc(-c2cnn3ccc(Cl)cc23)s1)c1cc(NS(=O)(=O)C2CC2)ccn1 (single isomer, unassigned) 7.60 to 8.30

Another molecule to check: CCOc1cncc(-c2cnc(C(=O)N[C@@H](CN3CC[C@@](C)(O)C3)c3cc(NS(=O)(=O)C4CC4)ccn3)s2)n1 7.00 to 7.30

Another molecule to check: CCOc1cncc(-c2cnc(C(=O)N[C@@H](CN3CCCC3)c3cc(NS(=O)(=O)C4CC4)ncn3)s2)n1 7.30 to 7.60

Another molecule to check: CCOc1cncc(-c2cnc(C(=O)N[C@H](CN3CC[C@](C)(O)C3)c3cc(NS(=O)(=O)C4CC4)ccn3)s2)n1 7.60 to 8.30

###

- Target Of Assay: human CTPS1 (Homo sapiens, UniProt P17812)
- Assay: ADP-Glo assay, human CTPS1 enzyme inhibition
- Type: biochemical
- Applied Conditions: wild-type human CTPS1, 25 nM enzyme; ADP-Glo; read-out: ADP-Glo_WT_hCTPS1—25 nM_IC50 (IC50)
Kindly supply the reported IC50 values for the records listed here.

Which IC50 reading was recorded for the molecule CCOc1cncc(-c2cnc(C(=O)N[C@]3(c4cc(NS(=O)(=O)C5CC5)ccn4)CCOC3)s2)n1 (single isomer, unassigned) ? 0.005 to 0.025 µM

Another molecule to check: CCOc1cncc(-c2cnc(C(=O)N[C@@H](c3cc(NS(=O)(=O)C4CC4)ccn3)[C@@H]3C[C@@H]4CC[C@H]3O4)s2)n1 ≤ 0.005 µM

Another molecule to check: CCOc1cncc(-c2cnc(C(=O)N[C@@H](c3cc(NS(=O)(=O)C4CC4)ccn3)[C@@H](C)CN3CCCCC3)s2)n1 (stereo in doubt) 0.05 to 0.1 µM

Another molecule to check: COC[C@@H](NC(=O)c1ncc(-c2cnn3ccc(Cl)cc23)s1)c1cc(NS(=O)(=O)C2CC2)ccn1 (single isomer, unassigned) 0.005 to 0.025 µM

Another molecule to check: O=C(N[C@@H](CN1CCCC1)c1cccc(NS(=O)(=O)C(F)F)c1)c1ncc(-c2cnn3ccc(Cl)cc23)s1 0.025 to 0.05 µM

Another molecule to check: CCOc1cncc(-c2cnc(C(=O)N[C@@H](CC(C)(C)N(C)C)c3cc(NS(=O)(=O)C4CC4)ccn3)s2)n1 0.005 to 0.025 µM

Another molecule to check: CCOc1cncc(-c2ccc(C(=O)N[C@H](COC)c3cc(NS(=O)(=O)C4CC4)ccn3)cc2)n1 0.025 to 0.05 µM

Another molecule to check: CCOc1cncc(-c2cnc(C(=O)N[C@@H](c3cc(NS(=O)(=O)C4CC4)ccn3)[C@@H](C)O)s2)n1 [I-265] 0.005 to 0.025 µM

Another molecule to check: CCOc1cncc(-c2cnc(C(=O)N[C@H](c3cc(NS(=O)(=O)C4CC4)ccn3)[C@H]3CCCO3)s2)n1 0.025 to 0.05 µM

Another molecule to check: CCOc1cncc(-c2ccc(C(=O)NCc3cc(NS(=O)(=O)C4CC4)ccn3)cn2)n1 0.025 to 0.05 µM

Another molecule to check: CCOc1cncc(-c2cnc(C(=O)NCc3ccnc(NS(=O)(=O)C4CC4)n3)s2)n1 0.025 to 0.05 µM

Another molecule to check: CCOc1cncc(-c2ccc(C(=O)NCc3cc(NS(=O)(=O)C4CC4)ccn3)cc2F)n1 0.005 to 0.025 µM

Another molecule to check: C[C@@H](O)[C@H](NC(=O)c1ncc(-c2cnn3ccc(Cl)cc23)s1)c1cc(NS(=O)(=O)C2CC2)ccn1 0.005 to 0.025 µM

Another molecule to check: CCOc1cncc(-c2cnc(C(=O)N[C@@H](c3cccc(NS(=O)(=O)C(F)F)c3)C(C)(C)O)s2)n1 0.005 to 0.025 µM
